Recorded values, source patent US6303612A.

Kindly state inhibition at 100 µM for each of the entries shown.
molecular target: LTD4 receptor (Cavia porcellus); construct: The membrane fraction was prepared from male guinea-pig lungs; from tissue; host or cells: male guinea-pig lung membranes; assay: LTD4 receptor binding study; details: at 100 μM; 3H-LTD4, guinea-pig lung membranes; read-out: Inh. of LTD4 rec. binding, %
# number only, unit % dropped from output

Input: Find inhibition at 100 µM (LTD4 receptor (Cavia porcellus)) for the entry CCCc1c(OCCCOc2cccc(Sc3ccccc3C(=O)O)c2)ccc(C(C)=O)c1O
Output: 100

Input: Find inhibition at 100 µM (LTD4 receptor (Cavia porcellus)) for the entry CCCc1c(OCCCCOc2ccc(Sc3ccccc3C(=O)O)cc2)ccc(C(C)=O)c1O
Output: 100

Input: Find inhibition at 100 µM (LTD4 receptor (Cavia porcellus)) for the entry NC(=O)N1C(=O)C(=C(O)c2cccs2)c2cc(Cl)ccc21 [Tenidap Na^+, reference compound]
Output: 10

Input: Find inhibition at 100 µM (LTD4 receptor (Cavia porcellus)) for the entry CCCc1c(OCCCCOc2ccc(Sc3ccc([N+](=O)[O-])cc3C(=O)O)cc2)ccc(C(C)=O)c1O
Output: 89

Input: Find inhibition at 100 µM (LTD4 receptor (Cavia porcellus)) for the entry CCCc1c(OCCCOc2ccc(Sc3ccc(C(=O)O)cc3)cc2)ccc(C(C)=O)c1O
Output: 97

Input: Find inhibition at 100 µM (LTD4 receptor (Cavia porcellus)) for the entry CCCc1c(OCCCCOc2ccc(Sc3ccccc3CC(=O)O)cc2)ccc(C(C)=O)c1O
Output: 63

Input: Find inhibition at 100 µM (LTD4 receptor (Cavia porcellus)) for the entry CCCc1c(OCCCOc2cccc(Sc3ccc(C(=O)O)cc3)c2)ccc(C(C)=O)c1O
Output: 97

Input: Find inhibition at 100 µM (LTD4 receptor (Cavia porcellus)) for the entry O=C(O)c1ccc(Sc2cccc(OCc3ccc4ccccc4n3)c2)cc1
Output: 100

Input: Find inhibition at 100 µM (LTD4 receptor (Cavia porcellus)) for the entry O=C(O)c1ccccc1Sc1cccc(OCc2ccc3cc(Cl)ccc3n2)c1
Output: 100

Input: Find inhibition at 100 µM (LTD4 receptor (Cavia porcellus)) for the entry CCCc1c(OCCCOc2ccc(Sc3ccccc3CC(=O)O)cc2)ccc(C(C)=O)c1O
Output: 71

Input: Find inhibition at 100 µM (LTD4 receptor (Cavia porcellus)) for the entry CCCc1c(OCCCCOc2cccc(Sc3ccc(C(=O)O)cc3[N+](=O)[O-])c2)ccc(C(C)=O)c1O
Output: 53

Input: Find inhibition at 100 µM (LTD4 receptor (Cavia porcellus)) for the entry O=C(O)c1ccccc1Sc1ccc(OCc2ccc3cc(Cl)ccc3n2)cc1
Output: 86

Input: Find inhibition at 100 µM (LTD4 receptor (Cavia porcellus)) for the entry O=C(O)c1ccc(Sc2ccc(OCc3ccc4ccccc4n3)cc2)cc1
Output: 100

====

Biological target: LTD4 receptor (Cavia porcellus)
Construct: The membrane fraction was prepared from male guinea-pig lungs; from tissue; host or cells: male guinea-pig lung membranes
Sequence (Q2NNR5 1-340): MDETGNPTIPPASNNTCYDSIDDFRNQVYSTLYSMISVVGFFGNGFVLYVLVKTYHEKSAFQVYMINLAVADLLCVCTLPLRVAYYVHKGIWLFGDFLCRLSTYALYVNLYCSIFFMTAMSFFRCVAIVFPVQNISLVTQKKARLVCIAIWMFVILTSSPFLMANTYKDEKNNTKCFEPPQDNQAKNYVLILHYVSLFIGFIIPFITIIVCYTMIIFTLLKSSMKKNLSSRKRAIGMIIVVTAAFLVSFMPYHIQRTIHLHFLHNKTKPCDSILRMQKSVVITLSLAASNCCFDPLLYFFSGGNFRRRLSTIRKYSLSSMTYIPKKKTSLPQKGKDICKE
Assay: LTD4 receptor binding study
Details: at 100 μM; 3H-LTD4, guinea-pig lung membranes; read-out: Inh. of LTD4 rec. binding, %
If the reported inhibition at 100 µM equals or exceeds 80%, assign fulfilled. If not, assign not fulfilled.

Input: Please indicate if the recorded inhibition at 100 µM for CCCc1c(OCCCOc2ccc(Sc3ccccc3C(=O)O)cc2)ccc(C(C)=O)c1O meets or exceeds 80%.
Output: fulfilled

Input: Please indicate if the recorded inhibition at 100 µM for O=C(O)Cc1ccccc1Sc1ccc(OCCCN2CCN(Cc3ccc(Cl)cc3)CC2)cc1 meets or exceeds 80%.
Output: not fulfilled

Input: Please indicate if the recorded inhibition at 100 µM for CC(c1cc2ccccc2s1)N(O)C(N)=O (centres unmarked) [Zileuton, reference compound] meets or exceeds 80%.
Output: not fulfilled

Input: Please indicate if the recorded inhibition at 100 µM for CCCc1c(OCCCCOc2cccc(Sc3ccc(C(=O)O)cc3)c2)ccc(C(C)=O)c1O meets or exceeds 80%.
Output: not fulfilled

Input: Please indicate if the recorded inhibition at 100 µM for CCCc1c(OCCOc2cccc(Sc3ccc(C(=O)O)cc3)c2)ccc(C(C)=O)c1O meets or exceeds 80%.
Output: fulfilled

Input: Please indicate if the recorded inhibition at 100 µM for COC(=O)c1ccccc1Sc1cccc(OCCCN2CCN(CCO)CC2)c1 meets or exceeds 80%.
Output: not fulfilled

Input: Please indicate if the recorded inhibition at 100 µM for O=C(O)c1ccccc1Sc1ccc(OCc2ccc3ccccc3n2)cc1 meets or exceeds 80%.
Output: fulfilled

Input: Please indicate if the recorded inhibition at 100 µM for O=C(O)c1ccccc1Sc1ccc(OCCN2CCN(Cc3ccc(Cl)cc3)CC2)cc1 meets or exceeds 80%.
Output: not fulfilled

Input: Please indicate if the recorded inhibition at 100 µM for O=C(O)c1ccccc1Sc1cccc(OCCCN2CCN(Cc3ccc(Cl)cc3)CC2)c1 meets or exceeds 80%.
Output: not fulfilled

Input: Please indicate if the recorded inhibition at 100 µM for COc1cc(C(=O)NS(=O)(=O)c2ccccc2C)ccc1Cc1cn(C)c2ccc(NC(=O)OC3CCCC3)cc12 [Accolate, reference compound] meets or exceeds 80%.
Output: fulfilled

Input: Please indicate if the recorded inhibition at 100 µM for O=C(O)c1ccccc1Sc1cccc(OCc2ccc3ccccc3n2)c1 meets or exceeds 80%.
Output: fulfilled

Input: Please indicate if the recorded inhibition at 100 µM for CCCc1c(OCCOc2ccc(Sc3ccc(C(=O)O)cc3)cc2)ccc(C(C)=O)c1O meets or exceeds 80%.
Output: fulfilled

Input: Please indicate if the recorded inhibition at 100 µM for O=C(O)Cc1ccccc1Sc1ccc(OCc2ccc3ccccc3n2)cc1 meets or exceeds 80%.
Output: fulfilled

Input: Please indicate if the recorded inhibition at 100 µM for O=C(O)c1ccc(Sc2ccc(OCc3ccc4cc(Cl)ccc4n3)cc2)cc1 meets or exceeds 80%.
Output: fulfilled

Input: Please indicate if the recorded inhibition at 100 µM for O=C(O)c1ccccc1Sc1ccc(OCCCCN2CCN(Cc3ccc(Cl)cc3)CC2)cc1 meets or exceeds 80%.
Output: fulfilled

====

system: male mice; test: Inhibition of arachidonic acid-induced ear inflammation in mice; type: in vivo; conditions: Mus musculus, po, 1 h, values with mark n: p > 0.05, read-out: Ear edema, E: hyperemia of ear lobe, % of inh.
readout_type: inhibition in vivo at 200 mg/kg (%)
# number only, unit % dropped from output

Input: Fill in the blank: the reported inhibition in vivo at 200 mg/kg of O=C(O)Cc1ccccc1Sc1cccc(OCc2ccc3cc(Cl)ccc3n2)c1 is ____.
Output: 11

Input: Fill in the blank: the reported inhibition in vivo at 200 mg/kg of O=C(O)Cc1ccccc1Sc1cccc(OCCCN2CCN(Cc3ccc(Cl)cc3)CC2)c1 is ____.
Output: 19

Input: Fill in the blank: the reported inhibition in vivo at 200 mg/kg of CCCc1c(OCCCCOc2ccc(Sc3ccc([N+](=O)[O-])cc3C(=O)O)cc2)ccc(C(C)=O)c1O is ____.
Output: 2

Input: Fill in the blank: the reported inhibition in vivo at 200 mg/kg of CCCc1c(OCCCCOc2cccc(Sc3ccc(C(=O)O)cc3)c2)ccc(C(C)=O)c1O is ____.
Output: 9

Input: Fill in the blank: the reported inhibition in vivo at 200 mg/kg of O=C(O)c1ccccc1Sc1cccc(OCCCN2CCN(Cc3ccc(Cl)cc3)CC2)c1 is ____.
Output: 7

Input: Fill in the blank: the reported inhibition in vivo at 200 mg/kg of CCCc1c(OCCCOc2ccc(Sc3ccccc3C(=O)O)cc2)ccc(C(C)=O)c1O is ____.
Output: 2

Input: Fill in the blank: the reported inhibition in vivo at 200 mg/kg of CCCc1c(OCCOc2cccc(Sc3ccc(C(=O)O)cc3)c2)ccc(C(C)=O)c1O is ____.
Output: 2

Input: Fill in the blank: the reported inhibition in vivo at 200 mg/kg of CC(c1cc2ccccc2s1)N(O)C(N)=O (centres unmarked) [Zileuton, reference compound] is ____.
Output: 13

====

tested on: male mice; test: Inhibition of arachidonic acid-induced ear inflammation in mice; assay type: in vivo; conditions: Mus musculus, po, 1 h, values with mark n: p > 0.05, read-out: Ear edema, E: hyperemia of ear lobe, % of inh.
Description: […]
If the reported inhibition in vivo at 200 mg/kg equals or exceeds 5%, assign True. If not, assign False.

Input: Please indicate if the recorded inhibition in vivo at 200 mg/kg for CCCc1c(OCCCOc2cccc(Sc3ccc(C(=O)O)cc3)c2)ccc(C(C)=O)c1O [Compound 5] meets or exceeds 5%.
Output: False

Input: Please indicate if the recorded inhibition in vivo at 200 mg/kg for CCCc1c(OCCCOc2cccc(Sc3ccccc3C(=O)O)c2)ccc(C(C)=O)c1O [Compound 6] meets or exceeds 5%.
Output: True

Input: Please indicate if the recorded inhibition in vivo at 200 mg/kg for O=C(O)c1ccccc1Sc1ccc(OCc2ccc3cc(Cl)ccc3n2)cc1 [Compound 21] meets or exceeds 5%.
Output: False

Input: Please indicate if the recorded inhibition in vivo at 200 mg/kg for NC(=O)N1C(=O)C(=C(O)c2cccs2)c2cc(Cl)ccc21 [Tenidap Na^+, reference compound] meets or exceeds 5%.
Output: True

Input: Please indicate if the recorded inhibition in vivo at 200 mg/kg for CCCc1c(OCCCCOc2cccc(Sc3ccc(C(=O)O)cc3[N+](=O)[O-])c2)ccc(C(C)=O)c1O [Compound 9] meets or exceeds 5%.
Output: False

Input: Please indicate if the recorded inhibition in vivo at 200 mg/kg for CCCc1c(OCCCOc2ccc(Sc3ccccc3CC(=O)O)cc2)ccc(C(C)=O)c1O [Compound 25] meets or exceeds 5%.
Output: True

Input: Please indicate if the recorded inhibition in vivo at 200 mg/kg for O=C(O)c1ccc(Sc2ccc(OCc3ccc4ccccc4n3)cc2)cc1 [Compound 16] meets or exceeds 5%.
Output: False

Input: Please indicate if the recorded inhibition in vivo at 200 mg/kg for O=C(O)Cc1ccccc1Sc1ccc(OCCCN2CCN(Cc3ccc(Cl)cc3)CC2)cc1 [Compound 27] meets or exceeds 5%.
Output: True

Input: Please indicate if the recorded inhibition in vivo at 200 mg/kg for O=C(O)Cc1ccccc1Sc1ccc(OCc2ccc3ccccc3n2)cc1 [Compound 29] meets or exceeds 5%.
Output: True

Input: Please indicate if the recorded inhibition in vivo at 200 mg/kg for O=C(O)c1ccc(Sc2ccc(OCc3ccc4cc(Cl)ccc4n3)cc2)cc1 [Compound 22] meets or exceeds 5%.
Output: True

Input: Please indicate if the recorded inhibition in vivo at 200 mg/kg for O=C(O)c1ccccc1Sc1cccc(OCc2ccc3ccccc3n2)c1 [Compound 17] meets or exceeds 5%.
Output: False

Input: Please indicate if the recorded inhibition in vivo at 200 mg/kg for O=C(O)c1ccccc1Sc1ccc(OCCN2CCN(Cc3ccc(Cl)cc3)CC2)cc1 [Compound 11] meets or exceeds 5%.
Output: False

Input: Please indicate if the recorded inhibition in vivo at 200 mg/kg for CCCc1c(OCCCCOc2ccc(Sc3ccccc3CC(=O)O)cc2)ccc(C(C)=O)c1O [Compound 26] meets or exceeds 5%.
Output: False

Input: Please indicate if the recorded inhibition in vivo at 200 mg/kg for CCCc1c(OCCOc2ccc(Sc3ccc(C(=O)O)cc3)cc2)ccc(C(C)=O)c1O [Compound 1] meets or exceeds 5%.
Output: True

Input: Please indicate if the recorded inhibition in vivo at 200 mg/kg for O=C(O)c1ccc(Sc2cccc(OCc3ccc4ccccc4n3)c2)cc1 [Compound 18] meets or exceeds 5%.
Output: True

Input: Please indicate if the recorded inhibition in vivo at 200 mg/kg for COC(=O)c1ccccc1Sc1cccc(OCCCN2CCN(CCO)CC2)c1 [Compound 15] meets or exceeds 5%.
Output: False
